Catalogue of vapor or sublimation pressure values
RECORDED CONDITIONS: 294.3 K; Crystal; Transpiration method

SUBSTANCE SMILES: Oc1ccc(Cl)c(Cl)c1
vapor or sublimation pressure / kPa: 0.0004
//
SUBSTANCE SMILES: Oc1cccc(Cl)c1Cl
vapor or sublimation pressure / kPa: 0.0078
//
SUBSTANCE SMILES: Oc1cc(Cl)ccc1Cl
vapor or sublimation pressure / kPa: 0.0089
//
SUBSTANCE SMILES: Oc1cccc(Cl)c1
vapor or sublimation pressure / kPa: 0.00721

----------
Listing of recorded vapor or sublimation pressure by entry.
RECORDED CONDITIONS: 297.3 K; Crystal; Transpiration method
± gives the expanded uncertainty stated by the source.

SUBSTANCE SMILES: Oc1ccc(Cl)cc1Cl
vapor or sublimation pressure: 0.01464 ± 0.00075 kPa
--
SUBSTANCE SMILES: Oc1cccc(Cl)c1
vapor or sublimation pressure: 0.00999 ± 0.0005 kPa
--
SUBSTANCE SMILES: Oc1cccc(Cl)c1Cl
vapor or sublimation pressure: 0.0107 ± 0.0006 kPa
--
SUBSTANCE SMILES: Oc1cc(Cl)ccc1Cl
vapor or sublimation pressure: 0.0122 ± 0.0006 kPa
